Source: the supplement of paper PMC9732359

# RUN DESCRIPTION: protein stability index of a GFP-peptide fusion (yeast GPS) (PSI 1-4); higher = more stable; sorted into four equal gates, so the index is relative within each strain
# ASSAY CONTEXT: ubr1∆
In this section, each of the sequences is paired with its reported protein stability index.
REPORTED ENDPOINT: protein stability index

CHAIN SEQUENCE: FDIYNRDRKLITDKGTV [YJL039C/NUP192]
REPORTED ENDPOINT: protein stability index
RECORDED RESULT: 2.96
--
CHAIN SEQUENCE: NDELVELLANKCPLLVE [GRR1]
REPORTED ENDPOINT: protein stability index
RECORDED RESULT: 1.96
--
CHAIN SEQUENCE: SGTYHLNCGNGMGIGFI [POP1]
REPORTED ENDPOINT: protein stability index
RECORDED RESULT: 3.11
--
CHAIN SEQUENCE: TSKTVSNQFKRSLATAV [COR1]
REPORTED ENDPOINT: protein stability index
RECORDED RESULT: 1.8
--
CHAIN SEQUENCE: IFEISLQRKDYTSIVQC [YML103C/NUP188]
REPORTED ENDPOINT: protein stability index
RECORDED RESULT: 1.88
--
CHAIN SEQUENCE: MKQYRDFLGVASTGSGK [PRP28]
REPORTED ENDPOINT: protein stability index
RECORDED RESULT: 2.93
--
CHAIN SEQUENCE: IQIMANIDQEGSKQADR [PGD1]
REPORTED ENDPOINT: protein stability index
RECORDED RESULT: 3.08
--
CHAIN SEQUENCE: SIGSIYQWNLDGLQQLD [RPN1]
REPORTED ENDPOINT: protein stability index
RECORDED RESULT: 2.96
--
CHAIN SEQUENCE: LLIATNLKEYNKFMSIF [SRB8]
REPORTED ENDPOINT: protein stability index
RECORDED RESULT: 1.94
--
CHAIN SEQUENCE: RLELPVDFQNDLKDILE [BRR2]
REPORTED ENDPOINT: protein stability index
RECORDED RESULT: 2.81
--
CHAIN SEQUENCE: YQGVYSMGSILLSFVLG [YML031W/NDC1]
REPORTED ENDPOINT: protein stability index
RECORDED RESULT: 2.44
--
CHAIN SEQUENCE: FAGEAGDTVQFAEYIQA [PRE1]
REPORTED ENDPOINT: protein stability index
RECORDED RESULT: 2.09
--
CHAIN SEQUENCE: IDSFFLYVLPSFNIPRL [YMR129W/POM152]
REPORTED ENDPOINT: protein stability index
RECORDED RESULT: 1.26
--
CHAIN SEQUENCE: LPVKEFQIIDTLLPGLQ [RPS2]
REPORTED ENDPOINT: protein stability index
RECORDED RESULT: 1.5
--
CHAIN SEQUENCE: KLAFGLTKLNEDDLVGV [TAF14]
REPORTED ENDPOINT: protein stability index
RECORDED RESULT: 3
--
CHAIN SEQUENCE: YVKEKLEAVNSMIEKGG [RPN7]
REPORTED ENDPOINT: protein stability index
RECORDED RESULT: 2.83
--
CHAIN SEQUENCE: AKIDVMLTIARLGFFYN [RPN7]
REPORTED ENDPOINT: protein stability index
RECORDED RESULT: 3.14
--
CHAIN SEQUENCE: CFDSTTGRDAGFGILED [RRP40]
REPORTED ENDPOINT: protein stability index
RECORDED RESULT: 3.41
--
CHAIN SEQUENCE: VLSQFERSYPSEFANQN [ROX3]
REPORTED ENDPOINT: protein stability index
RECORDED RESULT: 2.78
--
CHAIN SEQUENCE: VSDSNDDVRRAAVIALG [RPN2]
REPORTED ENDPOINT: protein stability index
RECORDED RESULT: 3.42
--
CHAIN SEQUENCE: ISNVIKPNQTIMVLDAS [SRP54]
REPORTED ENDPOINT: protein stability index
RECORDED RESULT: 2.67
--
CHAIN SEQUENCE: HGSISPQEESVSPNISS [SIR3]
REPORTED ENDPOINT: protein stability index
RECORDED RESULT: 3.01
--
CHAIN SEQUENCE: EEKVLSTRLKKACKTAD [SRP68]
REPORTED ENDPOINT: protein stability index
RECORDED RESULT: 3.21
--
CHAIN SEQUENCE: FNGYNPEKKEMIQEVIV [FAS2]
REPORTED ENDPOINT: protein stability index
RECORDED RESULT: 3.4
--
CHAIN SEQUENCE: IIYPRSQTTLVQFGLNE [ARP9]
REPORTED ENDPOINT: protein stability index
RECORDED RESULT: 1.26
--
CHAIN SEQUENCE: RGFFDILSLATEGCIGL [MCD1]
REPORTED ENDPOINT: protein stability index
RECORDED RESULT: 2.7
--
CHAIN SEQUENCE: DFKEVEDFLHFIVAEYI [SRB4]
REPORTED ENDPOINT: protein stability index
RECORDED RESULT: 3.14
--
CHAIN SEQUENCE: IEKSRLFSEKTIRYLMQ [SNF6]
REPORTED ENDPOINT: protein stability index
RECORDED RESULT: 1.86
--
CHAIN SEQUENCE: LVLLELVSSGDRFIELI [YML103C/NUP188]
REPORTED ENDPOINT: protein stability index
RECORDED RESULT: 2.3
--
CHAIN SEQUENCE: LREEIFIANEGVHTGQF [RPL2A]
REPORTED ENDPOINT: protein stability index
RECORDED RESULT: 3.03
--
CHAIN SEQUENCE: YKDSLALINDLLREFKK [RPN6]
REPORTED ENDPOINT: protein stability index
RECORDED RESULT: 3.21
--
CHAIN SEQUENCE: DGDASKPAFSFGAKPDE [YJL041W/NSP1]
REPORTED ENDPOINT: protein stability index
RECORDED RESULT: 3.42
--
CHAIN SEQUENCE: ALMRCSFEETVEILFEA [RPO21]
REPORTED ENDPOINT: protein stability index
RECORDED RESULT: 2.85
--
CHAIN SEQUENCE: EVQCTSTPYLEILVEES [PCI8]
REPORTED ENDPOINT: protein stability index
RECORDED RESULT: 2.64
--
CHAIN SEQUENCE: KLYDAKRYTSEGTRNRF [YMR129W/POM152]
REPORTED ENDPOINT: protein stability index
RECORDED RESULT: 3.02
--
CHAIN SEQUENCE: KASRKSVGLPSKVASSL [ECM29]
REPORTED ENDPOINT: protein stability index
RECORDED RESULT: 2.84
--
CHAIN SEQUENCE: SFQKNSLHNTEKIMENK [AAR2]
REPORTED ENDPOINT: protein stability index
RECORDED RESULT: 2.96
--
CHAIN SEQUENCE: KAEKAEIRKRRASSLKA [RPS6A]
REPORTED ENDPOINT: protein stability index
RECORDED RESULT: 3.06
--
CHAIN SEQUENCE: ILSLATEGCIGLSQTEA [MCD1]
REPORTED ENDPOINT: protein stability index
RECORDED RESULT: 2.4
--
CHAIN SEQUENCE: SKRRITEELSITGEKLD [SMC1]
REPORTED ENDPOINT: protein stability index
RECORDED RESULT: 2.01
--
CHAIN SEQUENCE: IRQYALATAHIYLSRFL [SSN8]
REPORTED ENDPOINT: protein stability index
RECORDED RESULT: 1.11
--
CHAIN SEQUENCE: VWFSHPRRFGKGSRQCR [RPS29B]
REPORTED ENDPOINT: protein stability index
RECORDED RESULT: 3.23
--
CHAIN SEQUENCE: KLLKVCLTMFEDRNESV [ECM29]
REPORTED ENDPOINT: protein stability index
RECORDED RESULT: 2.66
--
CHAIN SEQUENCE: IDGCVKIGDLGLARKFH [SSN3]
REPORTED ENDPOINT: protein stability index
RECORDED RESULT: 3.37
--
CHAIN SEQUENCE: IGQLIGEVMKELSEEKY [RPT4]
REPORTED ENDPOINT: protein stability index
RECORDED RESULT: 3.27
--
CHAIN SEQUENCE: VHESLVTQSNILSQQFD [SRB8]
REPORTED ENDPOINT: protein stability index
RECORDED RESULT: 3.02
--
CHAIN SEQUENCE: TNVPKAKKRKTLILIQN [SIR3]
REPORTED ENDPOINT: protein stability index
RECORDED RESULT: 1.4
